- System: U251 CNS
- assay-comment: NCI tumour cell line growth inhibition, 48 h
observation-type: TGI

INSERT INTO results (compound, observation_type, recorded_value) VALUES
  ('CCOC(=O)/C(O)=C/c1cc(OC)cc(=O)o1', 'TGI', '> 100 µM'),
  ('CCOC(=O)C1=C(c2ccccc2)N(C)c2ccccc2S1', 'TGI', '49.1 µM'),
  ('Cc1ccc(C(=O)N/N=C(\N=Nc2cccc(Cl)c2)c2ccc(N(CCC#N)CCC#N)cc2C)cc1', 'TGI', '> 100 µM'),
  ('COc1cc(CCN)c2c(c1OC)SSSSS2', 'TGI', '2.46 µM'),
  ('Cc1cc(/C=C\c2ccc3ccccc3[n+]2C)c(O)c2ncccc12', 'TGI', '> 100 µM'),
  ('COc1cc2c(c(OC)c1OC)-c1ccc(N)c(=O)cc1[C@@H](NC(C)=O)CC2', 'TGI', '> 100 µM'),
  ('Oc1cc(O)c(Oc2cccc(O)c2O)c(O)c1', 'TGI', '> 100 µM'),
  ('Nc1ncnc2c1ncn2C1CCC(COS(N)(=O)=O)C1 (stereo not drawn)', 'TGI', '> 100 µM'),
  ('COc1ccccc1N=C(N)N/N=C/c1c[nH]c2ccccc12', 'TGI', '24.2 µM'),
  ('Oc1ccc(C(c2ccc(O)cc2)c2ccc(Cl)cn2)cc1', 'TGI', '> 100 µM'),
  ('O=C(CSCC(=O)N/N=C/c1cccs1)N/N=C/c1cccs1', 'TGI', '> 100 µM'),
  ('Cc1cc(O)c(C(C)C)cc1SC#N', 'TGI', '31.8 µM'),
  ('CCc1cccc(C(C)C)c1NC(=O)C(=O)CC(=O)c1c(C)n([O-])c2ccccc2[n+]1=O', 'TGI', '> 100 µM'),
  ('NC(=S)N/N=C\c1ccc(OCc2cccc(COc3ccc(/C=N/NC(N)=S)cc3)n2)cc1', 'TGI', '> 100 µM'),
  ('CCCCCCCCCCCCCCN', 'TGI', '> 100 µM'),
  ('COc1ccccc1/C=C1\CCC(CCN(C)C)(C2=CCCC2)C1=O (stereo not drawn)', 'TGI', '31.1 µM'),
  ('Nc1nc(-c2ccccc2N=NN2CCCC2)nc2ccccc12', 'TGI', '8.91 µM'),
  ('COc1cc(/C=C\c2ccccc2)cc(OC)c1OC', 'TGI', '29.4 µM'),
  ('CCN(CC)CCNc1ccc([N+](=O)[O-])c2sc3ccccc3c(=O)c12', 'TGI', '2.01 µM'),
  ('CCOC(=O)C(NC(=O)N(C1=NCC(C)S1)C1CCCCC1)(OC)C(F)(F)F (stereo not drawn)', 'TGI', '53.6 µM'),
  ('COc1ccc(-c2cc(=O)c3c(C)cc(C)nc3[nH]2)cc1', 'TGI', '> 100 µM'),
  ('O=C(Nc1cccs1)c1c(O)[nH]c(=S)[nH]c1=O', 'TGI', '> 100 µM'),
  ('O=C(Nc1ccc(Cl)cc1Cl)C(=O)C(C(=O)c1ccc2ccccc2c1)C1OC(=O)c2ccccc21 (stereo not drawn)', 'TGI', '16.2 µM');

* * *

- System: NCI-H460 lung
- assay-comment: NCI tumour cell line growth inhibition, 48 h
Consider the following molecules and their measured TGI readings.
observation-type: TGI (µM)

INSERT INTO assay_data (molecule, units_text, censoring_sign, recorded_value) VALUES
  ('O=C(Nc1ccc(F)cc1)c1ccc(NC2=C(Cl)C(=O)N(Cc3ccccc3)C2=O)cc1', 'µM', '>', 100),
  ('CCN(CC)CCNc1ccc([N+](=O)[O-])c2sc3ccccc3c(=O)c12', 'µM', '=', 1.96),
  ('CC(=O)O[C@@H]1C[C@@]23C[C@@]24CC[C@H](OC2OCC(O)C(O)C2O)C(C)(C)[C@@H]4CC=C3[C@]2(C)C[C@@H]3OC4(C[C@@H](C)[C@@H]3[C@@]12C)OC(O)[C@@]1(C)O[C@@H]41 (some centres undefined)', 'µM', '=', 66.9),
  ('O=C1C(c2c[nH]c3ccccc23)=C(c2c[nH]c3ccccc23)C(=O)N1O', 'µM', '>', 25),
  ('CC(C)C1(O)C(c2ccccc2)=C(c2ccccc2)C(c2ccccc2)=C1c1ccccc1', 'µM', '=', 46.8),
  ('COc1ccc(N(C)C(=O)N(C)c2ccc([N+](=O)[O-])cc2)cc1', 'µM', '>', 100),
  ('CN1CCN(c2c(Cl)cc(Cl)c3[nH]c4ccccc4c(=O)c23)CC1', 'µM', '=', 24.1),
  ('O=[N+]([O-])c1c(Br)cc(Br)c2c1Nc1c(ccc(Cl)c1Cl)S2', 'µM', '=', 41.4),
  ('C/C(=C\c1ccccn1)c1ccccn1', 'µM', '>', 100);

The reported numbers originate from PubChem BioAssay (NCI).
